// provenance: the Deep4Chem optical property database

// reported photoluminescence quantum yield for each item listed
Test: photoluminescence quantum yield (fraction); solvent given as SMILES
Settings: in CN(C)C=O

Which measured photoluminescence quantum yield value corresponds to CCn1c2ccccc2c2cc(-c3cc(-c4ccc5c(c4)c4ccccc4n5CC)ncn3)ccc21 ? 0.76

What do you get for O=C1/C(=C/C=C/c2cc3c4c(c2)CCCN4CCC3)CC/C1=C\C=C\c1cc2c3c(c1)CCCN3CCC2 ? 0.053

What do you get for Cc1cc(C)c(C2=C3C=C(/C=C/C(=O)OC(C)(C)C)C=[N+]3[B-](F)(F)n3c2ccc3N2CCOCC2)c(C)c1 ? 0.15

What do you get for CCN(CC)/C(C)=N\c1ccc2c3c(cccc13)C(=O)c1ccccc1-2 ? 0.15
